Target: UniProt:P35414
Sequence (P35414 whole entry): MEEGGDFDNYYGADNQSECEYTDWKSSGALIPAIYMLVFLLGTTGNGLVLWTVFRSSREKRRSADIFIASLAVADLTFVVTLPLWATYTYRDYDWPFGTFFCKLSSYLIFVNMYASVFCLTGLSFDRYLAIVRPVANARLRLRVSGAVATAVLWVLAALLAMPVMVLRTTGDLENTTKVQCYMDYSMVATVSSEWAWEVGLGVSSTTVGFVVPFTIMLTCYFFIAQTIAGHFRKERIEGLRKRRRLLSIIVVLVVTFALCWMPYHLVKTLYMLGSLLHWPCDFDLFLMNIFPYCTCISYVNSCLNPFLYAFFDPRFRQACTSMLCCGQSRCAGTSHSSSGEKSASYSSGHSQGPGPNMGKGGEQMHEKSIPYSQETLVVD
Assay: [35S]GTPγS binding assay on membranes from CHO cells stably expressing human APJ receptor
Conditions: membranes of CHO cells stably expressing human APJ receptor, means of several independent experiments, read-out: Activity hAPJ SPA EC50 IP
Method: The human APJ receptor was cloned by polymerase chain reaction and the gene encoding the receptor was subcloned in pFLAG-CMV™-3 expression vector (Sigma, Saint Louis, Mo. USA) in-house at Amgen. […] The optimum experimental conditions for the concentrations of GDP, MgCl2, and NaCl in the assay buffer were initially determined. […] Nonspecific binding was determined in the presence of 100 μM GTPγS and was always less than 0.2% of total binding. […]
# note: exactly 0.4 nM is not below, so it is False; use True for EC50 strictly under it

molecule | experimentalSystem | label
COc1cccc(OC)c1-n1c(NS(=O)(=O)[C@@H](C)[C@@H](O)c2ccc(Cl)cc2S(C)(=O)=O)nnc1-c1ccc(C)o1 (single isomer, unassigned) | UniProt:P35414 | True
COc1cccc(OC)c1-n1c(NS(=O)(=O)CCc2ncc(F)cn2)nnc1-c1ccc(C)o1 | UniProt:P35414 | True
COc1cccc(OC)c1-n1c(NS(=O)(=O)C[C@H](O)c2ccc(Cl)cc2S(C)(=O)=O)nnc1-c1ccc(C)o1 (single isomer, unassigned) | UniProt:P35414 | True
COc1cccc(OC)c1-n1c(NS(=O)(=O)[C@@H](C)[C@@H](C)c2ncc(F)cn2)nnc1-c1ccc(C)o1 | UniProt:P35414 | False
COc1cccc(OC)c1-n1c(NS(=O)(=O)[C@@H](C)[C@H](O)c2cccc3nccn23)nnc1-c1ccc(C)o1 (single isomer, unassigned) | UniProt:P35414 | False
